Tested on: R275C
EXPERIMENT DESCRIPTION: modulators of BK channel variants, profiling panel, selectivity assay, cell-based, U2OS BacMam, thallium flux, beta subunits (AID 1259406);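 also: initial slope of Thallos dye fluorescence rise after thallium is added; log ratio against the mean of 0.3% DMSO vehicle wells on the same plate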
EXPERIMENTAL SETUP: at 30 µM
The following compounds are shown together with reported log fold change Tl+ flux values.

COMPOUND	log fold change Tl+ flux
CS(=O)(=O)Nc1ccc(Cc2noc(-c3ccc4[nH]cc(CCN)c4c3)n2)cc1	-0.054
CCN(CC)CCOC(=O)C(O)(c1ccccc1)c1ccccc1	-0.0214
O=C1CN=C(c2ccccc2)c2cc([N+](=O)[O-])ccc2N1	-0.0214
CC12CCC(=O)C=C1CCC1C2CCC2(C)C(O)CCC12 (configuration not stated)	0.011
C[C@]12CCC(=O)C=C1CC[C@@H]1[C@@H]2CC[C@@]2(C)[C@H]1CC[C@]2(C)O	-0.0155
NC(=O)CS(=O)C(c1ccccc1)c1ccccc1 (configuration not stated)	-0.0429
Cc1ccc(-c2nc3ccc(C)cn3c2CC(=O)N(C)C)cc1	-0.0227
Oc1cc2c(cc1O)[C@H]1c3ccccc3CN[C@@H]1CC2	-0.0506
N#CC(C#N)=Cc1cccnc1	-0.0132
C[C@]12CC[C@H](O)CC1=CC[C@@H]1[C@@H]2CC[C@@]2(C)[C@H]1CC[C@]2(C)O	0.0183
CCC(COC(=O)c1cc(OC)c(OC)c(OC)c1)(c1ccccc1)N(C)C (configuration not stated)	-0.249
CN1CC[C@@H](c2ccc(F)cc2)[C@H](COc2ccc3c(c2)OCO3)C1	-0.0665

* * *

EXPERIMENT DESCRIPTION: growth inhibition of DIPG glioma cells, dose response, cell-based, JHH-DIPG-1, MIPE4.0, CellTiter-Glo, qHTS (AID 1347062);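 as to AC50: cells exposed to compound for two days before readout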
EXPERIMENTAL SETUP: JHH-DIPG-1 viability, CellTiter-Glo ATP luminescence
Records with an inconclusive call do not appear. Active and inactive are the calls of the source. The limit is not given here; nearly all actives have AC50 up to about 27 µM.
Possible outcomes: yes (1) (active), no (0) (inactive)

COMPOUND	CAT
CC(C)N(CCNC(=O)CN1CCCC1=O)C(C)C	no (0)
O=C(Oc1ccc([N+](=O)[O-])cc1)N1CCC(C(O)(c2ccc3c(c2)OCO3)c2ccc3c(c2)OCO3)CC1	no (0)
C[C@@H]1C[C@@H]([C@H](O)CC2CC(=O)NC(=O)C2)C(=O)[C@@H](C)C1	yes (1)
COc1ccc2c(c1)[C@]13CCCCC1C(C2)N(C)CC3 (some centres not stated)	no (0)
CCNC(=O)C[C@@H]1N=C(c2ccc(Cl)cc2)c2cc(OC)ccc2-n2c(C)nnc21	yes (1)
C[C@@H]1CC[C@@]2(OC1)O[C@H]1C[C@H]3[C@@H]4CC=C5C[C@@H](O[C@@H]6O[C@H](CO)[C@@H](O[C@@H]7O[C@@H](C)[C@H](O)[C@@H](O)[C@H]7O)[C@H](O)[C@H]6O[C@@H]6O[C@@H](C)[C@H](O)[C@@H](O)[C@H]6O)CC[C@]5(C)[C@H]4CC[C@]3(C)[C@H]1[C@@H]2C	yes (1)
CC(O)(CS(=O)(=O)c1ccc(F)cc1)C(=O)Nc1ccc(C#N)c(C(F)(F)F)c1 (configuration not stated)	yes (1)

* * *

EXPERIMENT DESCRIPTION: sensitizers of A549 cells to miR-34 induction, primary screen, imaging, A549 dox-inducible miR-34, nuclei and caspase counts (AID 1347080)
EXPERIMENTAL SETUP: A549 miR-34 inducible, Hoechst nuclei count, 48 h; measured here: total cells with miR-34 induction; stronger effect = lower value
Class boundaries, taken from values of cell count, are as follows: category 1 (below 8000), category 2 (8000 to below 9000), category 3 (9000 or more)

COMPOUND	CAT
Nc1ccc(CCN2CCN(c3cccc(C(F)(F)F)c3)CC2)cc1	category 2
CC(C)=CCOc1c2occc2cc2ccc(=O)oc12	category 2
COc1ccc2c(c1O)-c1cccc3c1[C@@H](C2)N(C)CC3	category 1
COc1ccc(/C=C/C(=O)CC(=O)/C=C/c2ccc(OC)c(OC)c2)cc1OC	category 1
O=C1C=CC(=O)C=C1	category 3
CCCN(CCC)[C@@H]1CCc2c(OC)cccc2[C@@H]1C	category 2
O=C(O)c1ccccc1-c1c2cc(Br)c(=O)cc-2oc2[c]([Hg])c(O)c(Br)cc12	category 3
O=C1Nc2ccccc2C2(CCN(CCc3ccc(C(F)(F)F)cc3)CC2)O1	category 1
Nc1cc2c(ncn2CCOCP(=O)(O)O)c(=O)[nH]1	category 1
O=C(O)Cc1cnc[nH]1	category 3
CC(=O)[C@H]1CCC2C3CC[C@H]4C[C@H](O)CC[C@]4(C)C3CC[C@@]21C (some centres not stated)	category 3
C[C@@H]1CC([C@H](O)CC2CC(=O)NC(=O)C2)C(=O)[C@@H](C)C1 (some centres not stated)	category 1
C=CCN1CC[C@]2(C)c3cc(O)ccc3CC1[C@@H]2C	category 2
Fc1ccc(C(OCCN2CCN(C/C=C/c3ccccc3)CC2)c2ccc(F)cc2)cc1	category 1

* * *

# reported normalised cell number; entries follow
EXPERIMENT DESCRIPTION: differential killing of epithelial or mesenchymal cells, primary screen, imaging, PC-3E GFP, TEM4-18 mCherry, co-culture (AID 1345086);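 also: cells exposed to compound for 72 h before imaging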
EXPERIMENTAL SETUP: imaging cell counts, measured here: epithelial PC-3E GFP cell survival, at 1 µM
ATTRIBUTE MEASURED: normalised cell number

COMPOUND	VALUE OBSERVED
CC[C@@H](CO)NC(=O)[C@@H]1C=C2c3cccc4[nH]cc(c34)C[C@H]2N(C)C1	0.88
O=[N+]([O-])O[C@H]1CO[C@H]2[C@@H]1OC[C@H]2O[N+](=O)[O-]	1.17
NC(=O)CS(=O)C(c1ccccc1)c1ccccc1 (configuration not stated)	1.04
C[N+](C)(C)CC(=O)[O-]	1.09
C[C@H]1O[C@H](OC2[C@@H](O)[C@@H](O)C(O)[C@H](O)[C@H]2O)[C@@H](N)C[C@@H]1N=C(N)C(=O)O (some centres not stated)	1
Cc1ncc(C[n+]2csc(CCO)c2C)c(=O)[nH]1	1.27
Oc1ccc2c3c1OC1[C@@H](O)CC[C@@]4(O)[C@@H](C2)N(CC2CCC2)CC[C@]314 (some centres not stated)	1.11
CCCCCCCCCCNCCC (tested in a mixture with another compound)	1.01
COC(=O)C1=CCCN(C)C1	0.91
COc1cc2c(c3oc4cccc(O)c4c(=O)c13)[C@@H]1C=CO[C@@H]1O2	1.04
CC(C)c1cc2c(c(O)c1O)[C@@]1(C(=O)O)CCCC(C)(C)C1CC2 (some centres not stated)	0.87
CC[C@H]1CN2CCC1C[C@@H]2[C@@H](O)c1ccnc2ccc(OC)cc12 (some centres not stated)	1.01
c1ccc2c(c1)Nc1ccccc1S2	0.93
O=C1C=C2C=C[C@@H]3C[C@@]2(O1)[C@H]1CCCCN31	1.21
CC1(C)CC(=O)C(Cl)C(=O)C1	1.28
CC(=O)OCC1=C(C(=O)O)N2C(=O)[C@@H](NC(=O)CCCC(N)C(=O)O)C2SC1 (some centres not stated)	1.04
c1ccc2nc(N3CCNCC3)ccc2c1	1.13
C[N+]1(C)C2CCC1CC(OC(=O)C(CO)c1ccccc1)C2 (configuration not stated)	0.95
CC(C)CCCC1(C)C=Cc2c(O)c3c(c(CCC(C)C)c2O1)OC12C(CC4CC1C(C)(C)OC2(CCC(C)C(=O)O)C4O)C3=O (configuration not stated)	0.98
O=c1cccc2n1C[C@H]1CNCC2C1	1.31
C[C@H](N)[C@H](O)c1ccc(O)c(O)c1	1.01
C#CCN(C)C(C)Cc1ccccc1 (configuration not stated)	1.06
N#Cc1c(Cl)nc(NC2CC2)c2ccccc12	1.32
CC[N+]1(C)CCCC(OC(=O)C(O)(c2ccccc2)c2ccccc2)C1 (configuration not stated)	1.12
CO[C@H]1[C@H](O)[C@@H](O[C@H]2CC[C@]3(C=O)C4CC[C@]5(C)[C@@H](C6=CC(=O)OC6)CC[C@]5(O)C4CC[C@@H]3C2)O[C@@H](C)[C@@H]1O (some centres not stated)	0.18
CCN(C(C)=O)c1cccc(-c2ccnc3c(C#N)cnn23)c1	1.1
CN(C)Cc1c[nH]c2ccccc12	0.84

* * *

EXPERIMENT DESCRIPTION: inhibition of endothelial tube formation, primary screen, imaging, VEGF stimulated, CD31 staining, tube area, NPC library (AID 1117340)
EXPERIMENTAL SETUP: VEGF-stimulated ADSC/ECFC co-culture, at 10 µM, stronger effect = higher value

COMPOUND	tube area decrease [%]
OCCOc1ccccc1	8.6
O=C1OC(c2ccc(O)c(S(=O)(=O)O)c2)(c2ccc(O)c(S(=O)(=O)O)c2)c2c(Br)c(Br)c(Br)c(Br)c21	-6.3
CNCC(O)c1ccc(O)cc1 (configuration not stated)	-15.1
CN[C@@H]1C[C@@H](c2ccc(Cl)c(Cl)c2)c2ccccc21	108
NCCc1ccc(O)cc1	-10
CCCCC/C=C\C/C=C\C/C=C\C/C=C\CCCC(=O)NCC(=O)O	-12.4
CCCC(C)(COC(N)=O)COC(=O)NC(C)C (configuration not stated)	14.3

// data source = PubChem BioAssay
